- system-tested: Beta-galactosidase (Escherichia coli)
- Sequence (Q8VNN2 whole entry): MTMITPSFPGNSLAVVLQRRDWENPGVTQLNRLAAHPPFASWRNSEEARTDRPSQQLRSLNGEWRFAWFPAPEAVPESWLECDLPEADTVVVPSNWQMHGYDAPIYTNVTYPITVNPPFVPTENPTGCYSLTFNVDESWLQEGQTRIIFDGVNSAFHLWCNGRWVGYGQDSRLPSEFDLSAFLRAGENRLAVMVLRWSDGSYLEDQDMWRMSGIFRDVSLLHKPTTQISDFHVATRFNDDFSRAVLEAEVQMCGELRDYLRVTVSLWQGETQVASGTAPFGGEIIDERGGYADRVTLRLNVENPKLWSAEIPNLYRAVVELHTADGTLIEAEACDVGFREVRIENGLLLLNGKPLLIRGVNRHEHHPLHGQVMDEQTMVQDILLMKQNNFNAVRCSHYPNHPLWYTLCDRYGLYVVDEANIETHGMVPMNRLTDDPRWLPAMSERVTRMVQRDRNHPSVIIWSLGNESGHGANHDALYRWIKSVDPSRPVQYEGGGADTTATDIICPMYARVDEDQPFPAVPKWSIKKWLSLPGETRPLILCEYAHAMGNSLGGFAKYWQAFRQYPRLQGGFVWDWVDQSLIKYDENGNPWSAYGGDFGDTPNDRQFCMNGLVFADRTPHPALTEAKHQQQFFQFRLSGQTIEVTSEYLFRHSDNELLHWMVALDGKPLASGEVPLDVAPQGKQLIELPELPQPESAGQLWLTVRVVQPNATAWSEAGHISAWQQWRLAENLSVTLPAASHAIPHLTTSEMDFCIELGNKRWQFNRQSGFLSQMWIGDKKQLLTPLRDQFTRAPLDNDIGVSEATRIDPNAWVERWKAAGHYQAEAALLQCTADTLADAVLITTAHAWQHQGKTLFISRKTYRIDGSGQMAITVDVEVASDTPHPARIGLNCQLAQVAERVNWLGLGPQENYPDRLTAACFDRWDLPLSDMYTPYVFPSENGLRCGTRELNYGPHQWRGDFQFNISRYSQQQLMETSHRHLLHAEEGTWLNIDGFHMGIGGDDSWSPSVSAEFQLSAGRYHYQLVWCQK
- assay-text: PubChem AID 485352
- Assay type: functional
Calls of active or inactive are those of the source.
Choose one outcome from this list and give only that: label 1 (active), label 0 (inactive)

Solved entries:
INSERT INTO assay_data (molecule, assigned_category) VALUES
  ('O=C(CN1C(=O)c2ccccc2C1=O)NCC(=O)OCC(=O)c1cccc([N+](=O)[O-])c1', 'label 0'),
  ('COc1cc(/C=C/c2ccc3cccc(OC)c3n2)c(OC(C)=O)c([N+](=O)[O-])c1', 'label 1'),
  ('COc1ccc(NC2(c3ccc(Cl)cc3)C(=O)c3ccccc3C2=O)cc1', 'label 0');

Tell me the recorded outcome of this test for CN(C)c1ccc2nc3c(=O)[nH]c(=O)nc-3n(CC(O)C(O)C(O)CO)c2c1 (stereo not given) .
label 0

Tell me the recorded outcome of this test for CN(/N=C/c1cc([N+](=O)[O-])ccc1O)c1ccccc1 .
label 0

---

- system-tested: RNA-binding protein pos-1 (Caenorhabditis elegans, UniProt G5EF15)
- Sequence (G5EF15 whole entry): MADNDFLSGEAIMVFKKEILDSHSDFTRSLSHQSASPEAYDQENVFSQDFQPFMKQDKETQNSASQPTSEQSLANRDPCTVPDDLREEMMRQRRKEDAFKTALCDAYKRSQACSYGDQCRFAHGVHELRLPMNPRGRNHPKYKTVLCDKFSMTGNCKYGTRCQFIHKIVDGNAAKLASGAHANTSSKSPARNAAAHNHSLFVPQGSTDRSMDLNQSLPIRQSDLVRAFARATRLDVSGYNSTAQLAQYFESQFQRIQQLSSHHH
- assay-text: disruptors of C. elegans POS-1 RNA interaction – biochemical, fluorescence polarization, dose response (AID 1964);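 also: purified POS-1 fused to maltose binding protein made in E. coli; potency of compounds blocking POS-1 binding to fluorescent RNA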
Activity calls are given as the source filed them.
Kindly supply the reported EC50 values for the records listed here.

INSERT INTO assay_data (molecule, result) VALUES
  ('Cc1cc(N2C(=O)C(O)=C(C(=O)c3cc4ccccc4o3)C2c2ccc([N+](=O)[O-])cc2)no1 (stereo not given)', '> 300 µM (not active)'),
  ('CCn1c(CNC(=O)c2ccc(Cl)cc2)nnc1SCC(=O)N1CCOCC1', '> 300 µM (not active)'),
  ('Cc1ccc(/C=C2\C(=O)NC(=O)N(CC3CCCO3)C2=O)s1 (stereo not given)', '> 300 µM (not active)'),
  ('Cc1cc(/C=N/n2cnnc2)c(C)n1-c1ccc(C(=O)O)cc1', '> 300 µM (not active)');

// switching to the query molecule
So for O=C1NC(=O)/C(=C2\C(=O)Nc3ccc(Br)cc32)S1 , the logged EC50 turned out to be 17 µM (active)

---

Kindly supply the reported EC50 values for the records listed here.
- system-tested: Mu-type opioid receptor (Homo sapiens);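 also: U2OS cells with beta-arrestin recruitment to OPRM1 by beta-gal complementation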
- Sequence (P35372 whole entry): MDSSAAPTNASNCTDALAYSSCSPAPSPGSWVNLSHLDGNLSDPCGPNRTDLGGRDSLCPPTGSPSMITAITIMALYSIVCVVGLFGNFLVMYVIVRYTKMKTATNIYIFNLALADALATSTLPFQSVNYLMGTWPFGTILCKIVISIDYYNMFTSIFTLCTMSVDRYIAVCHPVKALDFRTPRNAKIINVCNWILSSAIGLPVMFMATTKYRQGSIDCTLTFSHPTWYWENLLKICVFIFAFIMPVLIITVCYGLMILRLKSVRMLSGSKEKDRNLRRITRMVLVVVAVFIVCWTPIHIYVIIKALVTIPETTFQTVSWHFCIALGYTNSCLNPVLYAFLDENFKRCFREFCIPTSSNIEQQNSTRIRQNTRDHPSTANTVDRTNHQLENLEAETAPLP
- Type: functional, cell-based
The source made the active and inactive calls.

INSERT INTO assay_data (molecule, property_measured, result) VALUES
  ('CC(C(=O)O)c1ccc(C(=O)c2cccs2)cc1 (centres undefined)', 'EC50', '92.6 µM (inactive)'),
  ('CCCN(CCC)C1CCc2cccc(O)c2C1 (centres undefined)', 'EC50', '92.5 µM (inactive)'),
  ('CCCCN(CC)CCCNC(=O)CC1Oc2ccccc2NC1=O (centres undefined)', 'EC50', '92.5 µM (inactive)');

So for O=C(c1cccs1)N1CCN(Cc2ccccc2)CC1 , the logged EC50 turned out to be 92.4 µM (inactive)

---

- assay-text: Luminescence Cell-Based Dose Response HTS to Identify Inhibitors of 5'UTR Stem-Loop Driven Prion Protein mRNA Translation in H4 Neuroglioblastoma Cells. [Related pubchem assays: 1827 (Project Summary), 1813 (Primary HTS)]
- Format: functional
Active and inactive are the calls of the source.
Kindly supply the reported EC50 values for the records listed here.

Example entries and their recorded answers appear below.
INSERT INTO results (compound, result) VALUES
  ('Oc1ccc(N=Nc2ccccc2C(F)(F)F)c2cccnc12', '1.08 µM (active)'),
  ('Cc1ccc(S(=O)(=O)Nc2cc(-c3nn(C)c(=O)c4ccccc34)ccc2N2CCOCC2)cc1', '> 120 µM (not active)'),
  ('O=[N+]([O-])c1ccc(N2CCN(S(=O)(=O)c3ccccc3)CC2)cc1NCC1CCCO1 (centres undefined)', '40.6 µM (active)');

So for O=[N+]([O-])c1cc(/C=N/n2cnnc2)ccc1N1CCCC1 , the logged EC50 turned out to be 16.9 µM (active)

---

- assay-text: NIH-3T3 fibroblast cytotoxicity, dose response, cytotoxicity control, cell-based, fluorescence, Alamar Blue, secondary assay (AID 2327);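 also: NIH-3T3 mouse fibroblasts cultured with fluconazole at 8 µg/mL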
- Assay type: functional
Calls of active or inactive are those of the source.
property-measured: EC50

Example entries and their recorded answers appear below.
INSERT INTO results (compound, result) VALUES
  ('Cc1cc(C)c(C)c(S(=O)(=O)ON2C(=O)c3ccccc3C2=O)c1C', '3.15 µM (inconclusive)'),
  ('O=C(Nc1ccccc1O)c1ccccc1O', '> 150 µM (inactive)'),
  ('Cc1cccc(NC2=NC(=S)N(c3cccc(C(=O)O)c3)C23CCCCC3)c1', '19.7 µM (inconclusive)');

Required: EC50, one value per compound below.
1. Cc1ccc2nc(N3C(=O)C(O)=C(C(=O)c4ccco4)C3c3ccc(C)o3)sc2c1 (stereo unspecified)
2. CN(CCCNC(=O)CCCOc1cc(=O)n(C)c2ccccc12)Cc1ccccc1
3. CCOc1cc(N2CCOCC2)c(OCC)cc1NC(=O)COc1cccc2cccnc12

1. 67.5 µM (active)
2. > 160 µM (inactive)
3. > 150 µM (inactive)

---

- system-tested: DNA dC->dU-editing enzyme APOBEC-3G (Homo sapiens, UniProt Q9HC16);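 also: Dose-response counterscreen measuring inhibition of APOBEC3G DNA deaminase activity, run while confirming APOBEC3A inhibitors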
- Sequence (Q9HC16 whole entry): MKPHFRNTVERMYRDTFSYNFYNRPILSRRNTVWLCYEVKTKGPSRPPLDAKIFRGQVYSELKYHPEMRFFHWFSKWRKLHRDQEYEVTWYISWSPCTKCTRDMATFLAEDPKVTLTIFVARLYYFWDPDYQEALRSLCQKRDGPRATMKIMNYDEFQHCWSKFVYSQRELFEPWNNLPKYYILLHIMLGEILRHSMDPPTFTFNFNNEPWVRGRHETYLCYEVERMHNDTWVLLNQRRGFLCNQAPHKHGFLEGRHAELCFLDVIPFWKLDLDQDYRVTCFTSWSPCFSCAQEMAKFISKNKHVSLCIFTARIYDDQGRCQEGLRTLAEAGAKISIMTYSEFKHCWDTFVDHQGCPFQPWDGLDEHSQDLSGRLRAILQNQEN
- Assay type: functional
Active and inactive are the calls of the source.
Kindly supply the reported IC50 values for the records listed here.

INSERT INTO results (compound, system_tested, result) VALUES
  ('CCCC(=O)Nc1ccc2nc(SCC(=O)Nc3ccc(N4CCOCC4)c(Cl)c3)sc2c1', 'DNA dC->dU-editing enzyme APOBEC-3G (Homo sapiens, UniProt Q9HC16)', '4.72 µM (active)');

Required: IC50, one value per compound below.
1. CCCC[N+]12CCC(CC1)C(C(O)(c1ccccc1)c1ccccc1)C2 (stereo unspecified)
2. N=C1/C(=C/c2ccco2)C(=O)N=C2SC(CC(=O)N3CCCC3)=NN12
3. C[N+](C)(C)C/C=C1/COCO1
4. COc1cc(/C=C/c2cc[n+](C)cc2)ccc1OCC(=O)Nc1ccccc1
5. CC(=O)Nc1ccc(-c2ccccc2)s1

1. 2.79 µM (active)
2. 37.6 µM (active)
3. 1.89 µM (active)
4. 2.02 µM (active)
5. 5.05 µM (active)

---

- system-tested: Voltage-dependent T-type calcium channel subunit alpha-1H (Homo sapiens, UniProt O95180);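 also: channel activity triggered by adding a high calcium stimulation buffer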
- Sequence (O95180 whole entry): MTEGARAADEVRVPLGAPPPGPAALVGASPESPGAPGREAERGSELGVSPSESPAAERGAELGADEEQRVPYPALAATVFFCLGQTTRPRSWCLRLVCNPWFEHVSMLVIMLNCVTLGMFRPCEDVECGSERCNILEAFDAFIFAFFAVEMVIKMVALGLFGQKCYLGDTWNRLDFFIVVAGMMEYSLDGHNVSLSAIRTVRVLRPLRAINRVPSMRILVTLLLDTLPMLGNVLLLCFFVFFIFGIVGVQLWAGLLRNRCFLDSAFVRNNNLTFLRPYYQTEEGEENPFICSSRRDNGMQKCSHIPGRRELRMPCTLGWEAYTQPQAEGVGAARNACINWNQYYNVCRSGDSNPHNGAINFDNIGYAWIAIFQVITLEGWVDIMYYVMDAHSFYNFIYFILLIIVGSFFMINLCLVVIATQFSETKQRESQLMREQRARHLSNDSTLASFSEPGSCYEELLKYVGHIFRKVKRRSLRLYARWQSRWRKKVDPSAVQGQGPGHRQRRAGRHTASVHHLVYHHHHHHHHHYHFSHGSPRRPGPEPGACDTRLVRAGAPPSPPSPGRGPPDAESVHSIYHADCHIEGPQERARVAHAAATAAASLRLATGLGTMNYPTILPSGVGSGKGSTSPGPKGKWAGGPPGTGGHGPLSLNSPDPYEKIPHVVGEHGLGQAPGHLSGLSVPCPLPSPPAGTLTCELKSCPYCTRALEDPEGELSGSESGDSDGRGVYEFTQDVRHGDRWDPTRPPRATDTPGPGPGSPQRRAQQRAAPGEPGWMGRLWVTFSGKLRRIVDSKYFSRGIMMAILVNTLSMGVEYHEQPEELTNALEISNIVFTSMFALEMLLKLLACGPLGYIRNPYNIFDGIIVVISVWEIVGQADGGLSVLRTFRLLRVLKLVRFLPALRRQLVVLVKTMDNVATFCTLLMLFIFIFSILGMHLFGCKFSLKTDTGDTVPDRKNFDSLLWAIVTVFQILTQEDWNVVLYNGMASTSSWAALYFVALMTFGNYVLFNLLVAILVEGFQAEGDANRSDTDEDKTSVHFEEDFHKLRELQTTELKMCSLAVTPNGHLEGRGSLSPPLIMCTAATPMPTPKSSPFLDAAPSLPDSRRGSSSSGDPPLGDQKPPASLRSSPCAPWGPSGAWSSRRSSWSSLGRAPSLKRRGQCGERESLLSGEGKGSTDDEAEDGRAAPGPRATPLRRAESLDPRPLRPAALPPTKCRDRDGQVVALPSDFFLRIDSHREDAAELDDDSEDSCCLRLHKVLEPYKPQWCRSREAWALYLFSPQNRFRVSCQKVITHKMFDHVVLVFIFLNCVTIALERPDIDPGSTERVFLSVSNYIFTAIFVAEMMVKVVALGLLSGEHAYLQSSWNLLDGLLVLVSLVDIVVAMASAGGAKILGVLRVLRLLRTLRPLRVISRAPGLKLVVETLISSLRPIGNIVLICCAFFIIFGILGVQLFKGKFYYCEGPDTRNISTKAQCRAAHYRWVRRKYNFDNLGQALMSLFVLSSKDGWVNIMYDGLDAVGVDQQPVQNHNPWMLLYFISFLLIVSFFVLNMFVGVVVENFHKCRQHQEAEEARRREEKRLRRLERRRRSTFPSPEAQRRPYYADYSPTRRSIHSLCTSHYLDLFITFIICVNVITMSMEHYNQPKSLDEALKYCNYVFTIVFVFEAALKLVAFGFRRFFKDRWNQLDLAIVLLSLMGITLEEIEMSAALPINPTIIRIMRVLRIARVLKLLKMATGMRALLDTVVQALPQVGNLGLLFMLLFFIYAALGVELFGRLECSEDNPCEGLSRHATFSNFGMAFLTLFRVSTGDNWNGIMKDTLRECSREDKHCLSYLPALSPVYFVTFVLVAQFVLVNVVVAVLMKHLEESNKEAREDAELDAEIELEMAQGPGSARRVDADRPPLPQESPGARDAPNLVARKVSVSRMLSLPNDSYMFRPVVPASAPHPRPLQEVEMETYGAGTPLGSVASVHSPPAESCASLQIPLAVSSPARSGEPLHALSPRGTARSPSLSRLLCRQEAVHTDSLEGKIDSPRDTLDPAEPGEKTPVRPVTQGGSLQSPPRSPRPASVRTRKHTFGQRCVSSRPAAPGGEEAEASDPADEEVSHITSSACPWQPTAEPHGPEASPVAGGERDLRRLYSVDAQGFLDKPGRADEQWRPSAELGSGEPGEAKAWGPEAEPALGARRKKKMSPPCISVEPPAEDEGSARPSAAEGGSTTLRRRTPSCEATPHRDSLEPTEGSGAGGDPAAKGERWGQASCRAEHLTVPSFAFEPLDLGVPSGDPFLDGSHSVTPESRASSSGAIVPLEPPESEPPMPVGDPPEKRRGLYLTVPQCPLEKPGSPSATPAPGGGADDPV
- Assay type: functional
Calls of active or inactive are those of the source.
property-measured: EC50

Example entries and their recorded answers appear below.
INSERT INTO measurements (compound, result) VALUES
  ('c1ccc(CN2c3ccccc3-c3nc4ccccc4n3C2c2ccccn2)cc1 (stereo not given)', '1.94 µM (active)'),
  ('O=C(COc1ccccc1)Nc1nnc(-c2ccc(Cl)s2)o1', '25.7 µM (active)'),
  ('S=C(NCc1ccccc1)NCC1COc2ccccc2O1 (stereo not given)', '3.17 µM (active)');

Required: EC50, one value per compound below.
1. CCC1Oc2ccc(C)cc2N(CC(=O)NCC2COc3ccccc3O2)C1=O (stereo not given)
2. Cc1ccc(N(C)C(=O)Oc2cccc3ccc(C)nc23)cc1

1. 5.63 µM (active)
2. 12.3 µM (active)

---

- assay-text: Luminescence Cell-Based Dose Retest to Confirm Inhibitors of Cancer Stem Cells. [Related pubchem assays (depositor defined):AID2717, AID2721]
- Assay type: functional
- test-context: Homo sapiens
Calls of active or inactive are those of the source.
Kindly supply the reported AC50 values for the records listed here.

Example entries and their recorded answers appear below.
INSERT INTO measurements (molecule, result) VALUES
  ('O=C1c2ccccc2C2=Nc3ccccc3SC(c3ccc(Cl)cc3)C12 (stereo not drawn)', '5.23 µM (active)'),
  ('COc1cc(/C=C/c2ccc3cccc(OC)c3n2)c(OC(C)=O)c([N+](=O)[O-])c1', '7.38 µM (active)'),
  ('O=[N+]([O-])c1ccc(S(=O)(=O)CC(CN2CCCCC2)N2CCCCC2)cc1 (stereo not drawn)', '2.17 µM (active)');

Required: AC50, one value per molecule below.
1. COc1ccc2nc(N=Nc3ccc(O)c4ccccc34)sc2c1
2. CCCCN(C)c1nc(-c2ccco2)c2c(c1C#N)CC(C)(C)OC2
3. COc1cccc(/C=N/NC(=O)CSc2nnc(C)n2-c2ccccc2)c1O
4. c1ccc(-c2nnc3sc(CN4CCc5ccccc54)cn23)cc1
5. OC(CNCc1ccco1)Cn1c2ccc(Br)cc2c2cc(Br)ccc21 (stereo not drawn)

1. 1.73 µM (active)
2. 7.53 µM (active)
3. 11.9 µM (active)
4. 7.58 µM (active)
5. 3 µM (active)
